- Tested on: TDF
- Assay Name: cell number relative to DMSO (% of DMSO); higher = more cells (less growth inhibition / toxicity)
- Condition Set: concentration: 10 µM; 24 h
Assay Endpoint: cell number
Number, no unit, nothing else.

Answered cases to consult:
>>> quantitative_readout("COc1ccc2c(c[n+](C)c3c4cc5c(cc4ccc23)OCO5)c1OC.[Cl-] [Chelerythrine chloride]")
0.93
>>> quantitative_readout("Cc1[nH]c2ccc(Cl)cc2c1C1=CCNCC1.Cl")
93.5
>>> quantitative_readout("C[N+](C)(C)CCOC(=O)CBr.[Br-] [Bromoacetylcholine bromide]")
122
>>> quantitative_readout("O=C(O)C=CC(=O)O.O=[N+]([O-])c1ccc2nc(N3CCNCC3)ccc2c1 [Quipazine, 6-nitro-, maleate]")
95.5

# ---- query compound ----
Input line: Endpoint output: cell number of Cl.NCCc1c[nH]c2ccc(O)cc12 [Serotonin hydrochloride] . Value?
Output line: 118

* * *

- System: TDF
- Assay Name: H1.0 immunofluorescence intensity relative to DMSO (% of DMSO); higher = stronger H1.0 induction, active = 120 or more
- Condition Set: concentration: 10 µM; 24 h
Assay Endpoint: H1.0 immunofluorescence intensity
Answer with the value's number alone.

>>> quantitative_readout("CC1OC(C[N+](C)(C)C)CC1O.[Cl-] (racemic)")
96.4
>>> quantitative_readout("CN1CC[C@@]2(C)c3cc(OC(=O)Nc4ccccc4)ccc3N(C)[C@@H]12")
106
>>> quantitative_readout("CC(C)(C)NCC(O)c1ccccc1Cl.Cl (centres undefined) [Tulobuterol hydrochloride]")
89.1
>>> quantitative_readout("CCn1cc(C(=O)[O-])c(=O)c2ccc(C)nc21.[Na+] [Nalidixic acid sodium]")
86
>>> quantitative_readout("COc1cc(C(O)CN)ccc1O.Cl (racemic)")
92.5

Input line: Please report the recorded H1.0 immunofluorescence intensity for NC(C(=O)O)c1cc(=O)[nH]o1 (racemic) .
Output line: 92.2

Input line: Return reported H1.0 immunofluorescence intensity; argument: NC(=O)CN1CC(O)CC1=O (centres undefined)
Output line: 89.7

Input line: H1.0 immunofluorescence intensity lookup needed for CCN1CC2(C)CCC(O)C34C5CC6C(OC)CC(O)(C(CC23)C14)C5C6O (centres undefined) , thanks.
Output line: 96.4

Input line: Give its H1.0 immunofluorescence intensity value. Item: CCCCCC=CCC=CCC=CCC=CCCCC(=O)NC(C)CO [(R)-Methandamide]
Output line: 100

* * *

- Tested on: HCC1569
- Assay Name: H1.0 immunofluorescence intensity relative to DMSO (% of DMSO); higher = stronger H1.0 induction, active = 140 or more
- Condition Set: concentration: 10 µM; 24 h
Attribute: H1.0 immunofluorescence intensity
Keep it simple and answer with nothing but the number.

Example compounds with recorded H1.0 immunofluorescence intensity:
>>> quantitative_readout("CNC1CC(c2ccc(Cl)c(Cl)c2)c2ccccc21.Cl (stereo not drawn) [Indatraline hydrochloride]")
133
>>> quantitative_readout("CC1CCCC(O)CCCCCc2cc(O)cc(O)c2C(=O)O1 (stereo not drawn)")
99.2
>>> quantitative_readout("C[N+]1(C)C2CCC1CC(OC(=O)C(CO)c1ccccc1)C2.O=[N+]([O-])[O-] (stereo not drawn) [Atropine methyl nitrate]")
89.7

Input line: Name the recorded H1.0 immunofluorescence intensity for "COc1ccc(C(=O)c2c(C)n(CCN3CCOCC3)c3cc(I)ccc23)cc1" .
Output line: 128

Input line: // lookup H1.0 immunofluorescence intensity for CCCCCCCCCCCCCCC(Br)C(=O)O (stereo not drawn) [2-bromohexadecanoic acid]
Output line: 94.5

Input line: Please give the measured H1.0 immunofluorescence intensity for this compound: OCC1CCCN2CCCCC12 (stereo not drawn) [Lupinine]
Output line: 84.3

Input line: Reported H1.0 immunofluorescence intensity, compound "CC1=NN=C(c2ccc(N)cc2)c2cc3c(cc2C1)OCO3.Cl" : ____
Output line: 104

Input line: Record request: H1.0 immunofluorescence intensity value, item CC1(O)CC23CC(O)C4(O)C(CC(O)C4(C)C)C(C)(O)C2CCC1C3O (stereo not drawn) [Grayanotoxin III]
Output line: 88.2
